# tested_system: KRAS G12D (Homo sapiens (Human), UniProt P01116+P62937, G12D)
# Sequence (P01116 other isoform, or with tags, fused parts or gaps G12D): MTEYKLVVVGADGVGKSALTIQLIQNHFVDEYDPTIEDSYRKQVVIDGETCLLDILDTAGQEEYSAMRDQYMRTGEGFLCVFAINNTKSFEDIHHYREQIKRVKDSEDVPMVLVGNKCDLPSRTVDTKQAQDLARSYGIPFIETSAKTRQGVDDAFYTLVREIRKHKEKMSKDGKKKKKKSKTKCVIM
# Sequence (P62937 whole entry): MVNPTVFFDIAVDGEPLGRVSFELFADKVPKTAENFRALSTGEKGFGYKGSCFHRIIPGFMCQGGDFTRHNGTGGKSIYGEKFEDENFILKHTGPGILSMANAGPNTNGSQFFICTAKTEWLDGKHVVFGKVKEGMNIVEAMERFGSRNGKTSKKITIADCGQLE
# protocol_notes: Ras-Raf disruption/FRET/MOA assay (BRAF RBD, Cyclophilin A)
# Type: biochemical
# cond: read-out: KRAS G12D FRET IC50
measured_endpoint: IC50

Item under review: CCn1c(-c2cccnc2[C@H](C)OC)c2c3cc(ccc31)-c1csc(n1)C[C@H](NC(=O)[C@H](C(C)C)N(C)C(=O)N1CCO[C@@H](c3ccccc3)C1)C(=O)N1CCC[C@H](N1)C(=O)OCC(C)(C)C2 [Compound A600] . Reported IC50?
100 to 1000 nM

Item under review: CCn1c(-c2cccnc2[C@H](C)OC)c2c3cc(ccc31)-c1csc(n1)C[C@H](NC(=O)[C@H](C(C)C)N(C)C(=O)N1CC([C@H](CO)OC)C1)C(=O)N1CCC[C@H](N1)C(=O)OCC(C)(C)C2 [Compound A515] . Reported IC50?
100 to 1000 nM

Item under review: CCn1c(-c2cccnc2[C@H](C)OC)c2c3cc(ccc31)-c1cc(O)cc(c1)C[C@H](NC(=O)[C@H](C(C)C)N(C)C(=O)[C@H]1[C@@H](N)[C@@H]3CC[C@H]1O3)C(=O)N1CCC[C@H](N1)C(=O)OCC(C)(C)C2 [Compound A421] . Reported IC50?
100 to 1000 nM

Item under review: CCn1c(-c2cccnc2[C@H](C)OC)c2c3cc(ccc31)-c1cc(O)cc(c1)C[C@H](NC(=O)[C@H](C(C)C)N(C)C(=O)[C@@H]1CCN(C(=O)OC)[C@@H]1c1ccccc1)C(=O)N1CCC[C@H](N1)C(=O)OCC(C)(C)C2 [Compound A501] . Reported IC50?
10 to 100 nM
